Test system: HOP-62 NSCLC
Assay: NCI-60 one-dose screen, 48 h (100 = growth as untreated, 0 = no growth, -100 = all killed)
Settings: 10 µM
Compounds without any hit were thinned out: in the full panel of roughly 83,000, 20% have a hit. Calls of active or inactive are those of the source. How the source made its calls: active means growth percent below 10; inactive means the rest.
Would you mind telling me the reported growth of each entry?

Would you kindly share the measured growth for CC(=O)Oc1ccc(C2=Cc3ccc(OC(C)=O)cc3OC2C)cc1 (stereo not given) ?
81.8% (inactive)

Would you kindly share the measured growth for COc1ccccc1CNCCCN1C(=O)c2ccc3c4c(ccc(c24)C1=O)C(=O)N(CCCNCCNCCCN)C3=O ?
40.4% (inactive)

Would you kindly share the measured growth for CCOc1nc(-c2ccccc2)cc2c(O)c(C(=O)N/N=C/c3ccc(OC)cc3)[nH]c(=O)c12 ?
105% (inactive)

Would you kindly share the measured growth for CC(=O)Nc1ccc(Sc2ccc(NC(C)=O)cc2)cc1 ?
70.7% (inactive)

Would you kindly share the measured growth for CCNC1(NC#N)CCCCC1 ?
109% (inactive)

Would you kindly share the measured growth for CCCCOCCOCCOCc1cc2c(cc1Br)OCO2 ?
92.7% (inactive)

Would you kindly share the measured growth for CCCCn1c(=O)[nH]c2c(c1=O)C(c1ccc(Cl)cc1)c1c([nH]c(=O)n(CCCC)c1=O)N2 ?
90.4% (inactive)

Would you kindly share the measured growth for Cc1ccc(NS(=O)(=O)c2ccccc2)c(NS(=O)(=O)c2ccccc2)c1 ?
86.5% (inactive)

Would you kindly share the measured growth for COc1ccc(-c2oncc2-c2cc(OC)c3c(c2)OCO3)cc1 ?
33.2% (inactive)

Would you kindly share the measured growth for CCc1nn2c(-c3ccccc3)c(-c3cc(OC)c(OC)c(OC)c3)nc2s1 ?
98.7% (inactive)

---

Test system: SF-268 CNS
Assay: NCI-60 one-dose screen, 48 h
Conditions: 10 µM
The panel holds about 83,000 compounds, 20% with a hit somewhere; the sample as a whole holds those more often. Calls of active or inactive are those of the source. The calls were made as follows: active = growth percent below 10; inactive = the rest.
Write down one outcome, taken from True = active, False = inactive

Test call for this molecule, please: COc1cc(-c2cc(-c3cc(OC)c(OC)c(OC)c3)nc3nc(N)[nH]c(=O)c23)ccc1Oc1ccnc2cc(Cl)ccc12
False

Test call for this molecule, please: CC1(C)CCc2cc(-c3ccn(S(=O)(=O)c4ccc(Cl)cc4)n3)ccc2O1
False

Test call for this molecule, please: O=C(NCc1cn(Cc2cccc(Oc3ccccc3)c2)nn1)c1cccnc1Nc1ccccc1
False

Test call for this molecule, please: N#CN1CC[C@H](C(=O)Nc2ncc(-c3ccncc3)s2)C1
True

Test call for this molecule, please: CCOC(=O)c1cc2c(n1Cc1cc(OC)cc(OC)c1)-c1oncc1CC2
False

Test call for this molecule, please: Nc1nc2c(nnn2C2CC(O)C(CO)O2)c(=O)[nH]1 (stereo not given)
False

Test call for this molecule, please: CCC(OC(=O)CC(C)C)c1ccccc1 (stereo not given)
False

Test call for this molecule, please: COc1cccc(-c2nnc(COc3ccc(-c4nc5ccccc5[nH]4)cc3OC)o2)c1
False

Test call for this molecule, please: Cc1cccc2c1O/C(=C\c1ncc([N+](=O)[O-])n1C)C2=O
True

Test call for this molecule, please: Cc1ccc(S(=O)(=O)N2CCc3ccccc3CC2)cc1
False

---

Would you mind telling me the reported growth of each entry?
System: NCI-H460 lung
Assay: NCI-60 one-dose screen, 48 h (100 = growth as untreated, 0 = no growth, -100 = all killed)
Conditions: 10 µM
The panel holds about 83,000 compounds, 20% with a hit somewhere; the sample as a whole holds those more often.
Provide only the numeric value, understood in %.

What value of growth on NCI-H460 lung does COc1cc(-c2nc3ccc(C)cc3[nH]2)ccc1OCC(=O)N=Nc1c(O)[nH]c2ccccc12 have?
-70.5

What value of growth on NCI-H460 lung does O=C(Nc1cccc(F)c1)Nc1cccc(Cl)c1 have?
56

What value of growth on NCI-H460 lung does NC(=O)C12C(=O)NC(=O)C1(C(=O)O)C21CCCC1 (stereo not given) have?
117

What value of growth on NCI-H460 lung does C=CCOc1ccc2c(c1)CC[C@@H]1[C@@H]2CC[C@]2(C)C(=O)/C(=N/O)C[C@@H]12 have?
64

What value of growth on NCI-H460 lung does c1ccc(CNc2nc(Nc3ccc(-c4nc5ccccc5[nH]4)cc3)c3cn[nH]c3n2)cc1 have?
4.06

Hello, the source for this data is PubChem BioAssay (NCI), in case you need it.
